target: Serine hydrolase RBBP9 (Homo sapiens) (UniProt O75884); experiment: RBBP9 serine hydrolase blockers re-tested – biochemical, fluorescence polarization, FP-Rh probe, triplicate, confirmation (AID 1537); conditions: recombinant RBBP9, FP-Rh probe fluorescence polarization; at 7.94 µM
Sequence (O75884 whole entry, looked up): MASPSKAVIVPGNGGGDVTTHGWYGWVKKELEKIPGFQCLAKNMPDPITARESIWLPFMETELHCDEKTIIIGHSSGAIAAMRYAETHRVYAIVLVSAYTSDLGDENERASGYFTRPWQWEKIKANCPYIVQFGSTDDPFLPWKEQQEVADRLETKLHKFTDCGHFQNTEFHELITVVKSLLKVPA
Some of the results follow. The source made the active and inactive calls.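 How the source made its calls: active means inhibition above the hit cutoff derived for the primary screen (cut at about 15% in these data); inactive means the rest.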
Assign a class; possible classes are active, inactive

Below are worked cases with known answers.
- MOLECULE: "CC1=NOC(=O)/C1=C\\c1ccccc1"
  QUALITATIVE_LABEL: "inactive"
- MOLECULE: "CCC(=O)N1CCCc2ccccc21"
  QUALITATIVE_LABEL: "inactive"
- MOLECULE: "COc1ccc(NS(=O)(=O)c2cc(NC(=O)CC(=O)c3ccc([N+](=O)[O-])cc3)ccc2C)cc1"
  QUALITATIVE_LABEL: "inactive"
- MOLECULE: "COc1cc(/C=N/NC(=O)Nc2ccccc2)ccc1OCCOc1ccccc1C"
  QUALITATIVE_LABEL: "inactive"

Alright, here's another molecule for you.
**Query** How did this test come out for Cc1ccnc(-n2sc3ccccc3c2=O)n1 ?
**Result** active

* * *

target: Serine hydrolase RBBP9 (Homo sapiens) (UniProt O75884); assay: RBBP9 serine hydrolase blockers re-tested – biochemical, fluorescence polarization, FP-Rh probe, triplicate, confirmation (AID 1537); conditions: recombinant RBBP9, FP-Rh probe fluorescence polarization; at 7.94 µM; active compounds read high
The other results are listed elsewhere or left out.
Binary classification by inhibition, with 2% as an inclusive lower bound for TRUE; all other cases are FALSE.

Below are worked cases with known answers.
- COMPOUND: "COc1cccc(NC(=O)c2ccc3c(SCC(=O)O)c4c(nc3c2)CCCC4)c1"
  QUALITATIVE_LABEL: "TRUE"
- COMPOUND: "Cc1ccc(NC(=O)CN2CCC(C(N)=O)CC2)cc1[N+](=O)[O-]"
  QUALITATIVE_LABEL: "TRUE"
- COMPOUND: "CCc1ccccc1NC1c2ccccc2C(=O)N1c1cccnc1 (configuration not stated)"
  QUALITATIVE_LABEL: "TRUE"
- COMPOUND: "COc1ccc(N2C(=O)C3CCCN3C2c2cc(OC)c(OC)cc2OC)cc1 (configuration not stated)"
  QUALITATIVE_LABEL: "TRUE"
- COMPOUND: "CCOc1ccc2[nH]c(=O)c(C(c3nnnn3CCOC)N3CCOCC3)cc2c1 (configuration not stated)"
  QUALITATIVE_LABEL: "FALSE"

**Query** // inclusive: inhibition at least 2%? input: COc1cc(C2C(C(=O)OCCC#N)=C(C)NC3=C2S(=O)(=O)c2ccccc23)cc(OC)c1OC (configuration not stated)
**Result** FALSE

**Query** // inclusive: inhibition at least 2%? input: Nn1c(Cc2cccc3ccccc23)nnc1SCC(=O)N1CC(=O)Nc2ccccc21
**Result** TRUE

These measurements were taken from PubChem BioAssay AID1537.
